- Test system: ACHN renal
- method summary: NCI-60 one-dose screen, 48 h (100 = growth as untreated, 0 = no growth, -100 = all killed)
- experimental setup: 10 µM
The panel holds about 83,000 compounds, 20% with a hit somewhere; the sample as a whole holds those more often.
Lab note - cut at 90% for growth: t if strictly below, f if not.

A selection of reference data follows.
| compound | test target | classification |
| --- | --- | --- |
| COc1cc(CNC(=O)C2CSC3(C)c4ccccc4C(=O)N23)cc(OC)c1OC (centres undefined) | ACHN renal | f |
| CCN(CCCNc1cc2c(c(N)c1S(=O)(=O)O)C(=O)c1ccccc1C2=O)c1ccccc1 | ACHN renal | f |

Input line: Here's an entry: "COc1cc2cc(Oc3ccc(NC(=O)c4cccc(C(F)(F)F)c4)cc3)c(C)nc2cc1OC" . Is its growth below 90%?
Output line: t

Input line: Query "CCCCC/C=C/C/C=C/CCCCCCCC1=NC(C)(C)CN1C(C)C" next
Output line: t

====

- Tested on: LOX IMVI melanoma
- method summary: NCI-60 one-dose screen, 48 h (100 = growth as untreated, 0 = no growth, -100 = all killed)
- experimental setup: 10 µM
Compounds without any hit were thinned out: in the full panel of roughly 83,000, 20% have a hit. Calls of active or inactive are those of the source. Rule for the calls: active = growth percent below 10; inactive = the rest.
# growth annotations

Guide cases for growth, answers given:
| compound | result |
| --- | --- |
| COc1cc(Cc2cc(-c3ccccc3)n[nH]c2=O)cc(OC)c1OC | 45.5% (inactive) |
| COc1cc(C2CC(c3ccc4c(c3)OCO4)=NN2c2ccccc2)cc(OC)c1OC (centres undefined) | 89.4% (inactive) |
| CN1CCc2c(sc3nc4n(-c5ccc(Cl)cc5)cnn4c(=O)c23)C1 | 97.6% (inactive) |
| CC(C)(C)OC(=O)CN1CCc2c(sc3ncnc(N/N=C/c4ccccc4Br)c23)C1 | 53.7% (inactive) |
| CCn1c(CSc2nc3ccccc3c(=O)n2CCc2ccccc2)n[nH]c1=S | 74.2% (inactive) |
| COc1cc(-c2csc(NC(=O)Nc3ccc(Cl)c(C(F)(F)F)c3)n2)cc(OC)c1OC | -19.2% (active) |

Input line: Request the reported growth associated with "O=C1/C=C/[C@@H](O)[C@@H]2C[C@@H](O)C[C@H]2/C=C/CCC[C@H](CCc2ccc(NC(=S)Nc3ccc4c(c3)C(=O)OC43c4ccc(O)cc4Oc4cc(O)ccc43)cc2)O1"
Output line: -51.4% (active)

Input line: Query "O=C1/C(=C/c2cccc(F)c2)Cc2ccccc21" next
Output line: 96.7% (inactive)

Input line: Query "Cc1cc(SCc2ccccc2)nc(N)n1" next
Output line: 103% (inactive)

====

- Test system: EKVX NSCLC
- method summary: NCI-60 one-dose screen, 48 h (100 = growth as untreated, 0 = no growth, -100 = all killed)
- experimental setup: 10 µM
The panel holds about 83,000 compounds, 20% with a hit somewhere; the sample as a whole holds those more often.
reported property: growth (%)
Form entry: value (%) — number only.

Guide cases for growth, answers given:
| compound | test target | reported property | numeric value |
| --- | --- | --- | --- |
| O=C(CC(CC(=O)c1ccccc1)c1ccccc1O)c1ccccc1 | EKVX NSCLC | growth | 95 |
| O=C(Nc1cc([N+](=O)[O-])c2[nH]c(=O)c3ccccc3c2c1)C(F)(F)F | EKVX NSCLC | growth | 67.1 |
| CC(=O)O[C@@]12CO[C@@H]1C[C@H](O)[C@@]1(C)C(=O)[C@H](O)C3=C(C)[C@@H](OC(=O)[C@H](O)[C@@H](NC(=O)OC(C)(C)C)c4ccccc4)C[C@@](O)([C@@H](OC(=O)c4ccccc4)C12)C3(C)C (some centres not stated) | EKVX NSCLC | growth | 59 |
| CCOC(=O)/C(=C(\C)N)C1CC(=O)NC1=O (configuration not stated) | EKVX NSCLC | growth | 102 |
| CN1CCN(c2cc3c(cc2F)c(=O)c(C(=O)O)cn3-c2ccc(F)cc2)CC1 | EKVX NSCLC | growth | 108 |
| C=CCN(CC=C)C(=O)[C@H](CC)[C@@H]1CC[C@@H](C)[C@@H]([C@H](C)[C@@H](O)[C@@H](C)C(=O)[C@H](CC)C2O[C@]3(C=C[C@@H](O)[C@]4(CC[C@@](C)([C@H]5CC[C@](O)(CC)[C@H](C)O5)O4)O3)[C@H](C)C[C@@H]2C)O1 (some centres not stated) | EKVX NSCLC | growth | -5.86 |

Kindly consider the entry below.
Input line: Request the reported growth associated with "CNC(=O)c1cn(C2CC2)c2cc(N3CCN(C(=O)c4cc(OC)c(OC)c(OC)c4)CC3)c(F)cc2c1=O"
Output line: 91.2
